Target: Tyrosine-protein phosphatase non-receptor type 1 (Homo sapiens, UniProt P18031)
Sequence (P18031 whole entry): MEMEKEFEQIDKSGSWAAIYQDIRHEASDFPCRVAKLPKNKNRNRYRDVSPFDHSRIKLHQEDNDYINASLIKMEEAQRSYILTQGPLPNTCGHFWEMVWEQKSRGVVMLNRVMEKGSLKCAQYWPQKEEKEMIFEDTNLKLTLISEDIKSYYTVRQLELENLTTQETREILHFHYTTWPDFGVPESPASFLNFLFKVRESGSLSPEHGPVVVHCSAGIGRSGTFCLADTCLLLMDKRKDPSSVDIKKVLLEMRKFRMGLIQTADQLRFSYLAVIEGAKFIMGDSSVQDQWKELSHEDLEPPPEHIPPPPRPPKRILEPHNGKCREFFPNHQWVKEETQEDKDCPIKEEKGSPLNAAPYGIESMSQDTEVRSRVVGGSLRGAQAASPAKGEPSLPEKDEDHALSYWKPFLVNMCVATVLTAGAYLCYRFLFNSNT
pIC50: −log10 of the molar value.
Compiled from multiple publications: pIC50 readings for Tyrosine-protein phosphatase non-receptor type 1 (Homo sapiens, UniProt P18031).
metric name: pIC50

compound=CCCCCNC(=O)[C@H](Cc1ccc(C2=CS(=O)(=O)NC2=O)cc1)NC(=O)[C@H](Cc1ccccc1)NC(=O)Cc1ccc(OC)cc1 recorded_measurement=5.22

A. CC1=CC[C@H]2C(C)(C)CCC[C@]2(C)[C@H]1CC(Cc1ccccc1)OS(=O)(=O)O (stereo not given in full)
B. Cc1ccc(CC(NC(=O)CCCC[C@]23CCC(C)(C)C[C@H]2C2=CC[C@@H]4[C@@]5(C)CC[C@H](O)C(C)(C)[C@@H]5CC[C@@]4(C)[C@]2(C)CC3)C(=O)O)cc1 (stereo not given in full)
In: Just curious, which one has the larger pIC50 reading, A or B ? // return label of chosen record
Out: B

----------
Biological target: Tyrosine-protein phosphatase non-receptor type 1 (Homo sapiens)
Sequence (P18031 whole entry): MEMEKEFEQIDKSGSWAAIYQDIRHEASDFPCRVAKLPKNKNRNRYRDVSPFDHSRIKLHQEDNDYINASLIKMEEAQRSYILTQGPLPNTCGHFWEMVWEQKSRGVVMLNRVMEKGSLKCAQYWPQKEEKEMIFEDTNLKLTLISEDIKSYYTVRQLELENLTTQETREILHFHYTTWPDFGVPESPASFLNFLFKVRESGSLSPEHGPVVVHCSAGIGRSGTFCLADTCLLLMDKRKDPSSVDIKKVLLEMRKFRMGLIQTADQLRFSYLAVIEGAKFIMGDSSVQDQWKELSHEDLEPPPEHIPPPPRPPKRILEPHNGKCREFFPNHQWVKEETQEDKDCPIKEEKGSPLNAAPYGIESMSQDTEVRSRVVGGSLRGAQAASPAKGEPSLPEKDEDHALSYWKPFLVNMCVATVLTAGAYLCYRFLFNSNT
pIC50: −log10 of the molar value.
A compilation of pIC50 values for Tyrosine-protein phosphatase non-receptor type 1 (Homo sapiens) from the published literature.
metric name: pIC50

molecule="O=C1CC(c2ccc(CC(NS(=O)(=O)c3ccc(-c4ccccc4)cc3)c3nc4c(O)cccc4[nH]3)cc2)S(=O)(=O)N1 (stereo not given)" recorded_measurement=6.62

A. O=C(O)c1ccc(Nc2cc3ccccc3cc2NS(=O)(=O)c2ccc(F)cc2)cc1
B. Cc1cc(CC(NS(=O)(=O)c2cccc(F)c2)C2=NC[C@@H](CCCCOc3cccc(O)c3C(=O)O)N2)ccc1C1CC(=O)NS1(=O)=O (stereo not given in full)
In: Of A and B , which shows the smaller pIC50 value? Your choice should be expressed through its label.
Out: A

----------
Biological target: Tyrosine-protein phosphatase non-receptor type 1 (Homo sapiens, UniProt P18031)
Sequence (P18031 whole entry): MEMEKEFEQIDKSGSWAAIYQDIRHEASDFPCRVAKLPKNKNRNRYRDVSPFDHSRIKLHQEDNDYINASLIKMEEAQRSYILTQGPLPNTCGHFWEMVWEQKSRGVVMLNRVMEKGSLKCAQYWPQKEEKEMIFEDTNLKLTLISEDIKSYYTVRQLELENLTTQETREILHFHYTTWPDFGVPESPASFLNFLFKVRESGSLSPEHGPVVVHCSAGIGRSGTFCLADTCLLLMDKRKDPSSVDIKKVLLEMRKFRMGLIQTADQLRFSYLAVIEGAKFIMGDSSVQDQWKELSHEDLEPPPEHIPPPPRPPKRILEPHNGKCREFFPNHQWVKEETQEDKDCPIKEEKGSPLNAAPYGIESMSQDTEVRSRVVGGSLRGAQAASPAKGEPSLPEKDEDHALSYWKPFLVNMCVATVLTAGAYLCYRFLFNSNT
Literature IC50 values, system: Tyrosine-protein phosphatase non-receptor type 1 (Homo sapiens, UniProt P18031).
metric name: IC50 (µM)

Recorded IC50, per entry:
chemical_structure=O=C(O)COc1ccc2cc(C(=O)O)ccc2c1 metric_name=IC50 unit_tag=µM recorded_measurement=9400
chemical_structure=CC1(C)CC[C@]2(C(=O)O)CC[C@]3(C)C(=CC[C@@H]4[C@@]5(C)C[C@@H](O)[C@H](O)C(C)(C)[C@@H]5CC[C@]43C)[C@@H]2C1 metric_name=IC50 unit_tag=µM recorded_measurement=5.93
chemical_structure=O=C(O)C(=O)c1ccc(CN(Cc2ccc(-c3csnn3)cc2)S(=O)(=O)c2ccccc2)cc1 metric_name=IC50 unit_tag=µM recorded_measurement=60.3
chemical_structure=O=C(Nc1nnc(-c2ccc(Oc3ccc([N+](=O)[O-])cc3)cc2)s1)c1ccccc1Cl metric_name=IC50 unit_tag=µM recorded_measurement=13.8
chemical_structure=O=C(O)CS(=O)(=O)c1ccc(CN(Cc2ccc(-c3csnn3)cc2)S(=O)(=O)c2ccccc2)cc1 metric_name=IC50 unit_tag=µM recorded_measurement=232
chemical_structure=BrCc1cc(Br)c2cc(NBr)c(Br)c(Br)c2c1 metric_name=IC50 unit_tag=µM recorded_measurement=185

a. CSCC[C@H](NC(=O)CCCC[C@]12CCC(C)(C)C[C@H]1C1=CC[C@@H]3[C@@]4(C)CC[C@H](O)C(C)(C)[C@@H]4CC[C@@]3(C)[C@]1(C)CC2)C(=O)O
b. O=C1NC(=O)/C(=C/c2ccc(OCc3ccc(C(F)(F)F)cc3)c(-c3ccccc3)c2)S1
In: Lab log: flag the item ( a or b ) with the smaller IC50 figure. // caller expects the label of the chosen entry
Out: a
(a: 0.55 µM, b: 6 µM)

----------
Below are IC50 values for Tyrosine-protein phosphatase non-receptor type 1 (Homo sapiens) collected from several publications.
Molecular target: Tyrosine-protein phosphatase non-receptor type 1 (Homo sapiens)
Sequence (P18031 whole entry): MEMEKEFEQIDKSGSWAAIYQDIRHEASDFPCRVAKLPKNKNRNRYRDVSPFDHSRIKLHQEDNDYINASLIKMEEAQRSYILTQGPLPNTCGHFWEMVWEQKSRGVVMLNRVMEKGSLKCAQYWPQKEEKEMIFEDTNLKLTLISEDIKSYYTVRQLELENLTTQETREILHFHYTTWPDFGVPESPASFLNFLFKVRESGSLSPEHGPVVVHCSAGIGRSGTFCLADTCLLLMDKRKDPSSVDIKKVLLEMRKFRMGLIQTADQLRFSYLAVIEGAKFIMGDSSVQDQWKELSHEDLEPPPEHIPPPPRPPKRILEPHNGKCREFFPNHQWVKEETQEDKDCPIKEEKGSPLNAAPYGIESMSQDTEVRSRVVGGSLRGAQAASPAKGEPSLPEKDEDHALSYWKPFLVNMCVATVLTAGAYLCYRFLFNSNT
metric name: IC50 (µM)

Illustrative cases are given below, each with its answer.
chemical_structure=O=C(O)COc1c(C(=O)O)sc(Br)c1Br metric_name=IC50 recorded_measurement=29
chemical_structure=CC(C)[C@@H]1CC[C@@H](C)[C@H]2C[C@]34O[C@H]([C@@]21O)[C@@]3(C)Oc1c(C=O)c(O)c(C=O)c(O)c1[C@H]4c1ccccc1 metric_name=IC50 recorded_measurement=19.1
chemical_structure=CNC(=O)[C@@H]1Cc2ccc(NS(=O)(=O)O)cc2CN1C(=O)CCc1ccc(C)cc1 metric_name=IC50 recorded_measurement=198

A. CC1(C)CC[C@]2(C(=O)N[C@@H](CCC(=O)O)C(=O)O)CC[C@]3(C)C(=CC[C@@H]4[C@@]5(C)CC[C@H](O)C(C)(C)[C@@H]5CC[C@]43C)[C@@H]2C1
B. CC1=C2CC[C@](C)([C@@H](CC(C)C)c3c(O)c(C=O)c(O)c(C=O)c3O)[C@H]2[C@H]2[C@@H](CC1)C2(C)C
In: Consider A and B . Which of these has its IC50 at a higher number? Answer format: the label of the selected item.
Out: A

----------
Molecular target: Tyrosine-protein phosphatase non-receptor type 1 (Homo sapiens, UniProt P18031)
Sequence (P18031 whole entry): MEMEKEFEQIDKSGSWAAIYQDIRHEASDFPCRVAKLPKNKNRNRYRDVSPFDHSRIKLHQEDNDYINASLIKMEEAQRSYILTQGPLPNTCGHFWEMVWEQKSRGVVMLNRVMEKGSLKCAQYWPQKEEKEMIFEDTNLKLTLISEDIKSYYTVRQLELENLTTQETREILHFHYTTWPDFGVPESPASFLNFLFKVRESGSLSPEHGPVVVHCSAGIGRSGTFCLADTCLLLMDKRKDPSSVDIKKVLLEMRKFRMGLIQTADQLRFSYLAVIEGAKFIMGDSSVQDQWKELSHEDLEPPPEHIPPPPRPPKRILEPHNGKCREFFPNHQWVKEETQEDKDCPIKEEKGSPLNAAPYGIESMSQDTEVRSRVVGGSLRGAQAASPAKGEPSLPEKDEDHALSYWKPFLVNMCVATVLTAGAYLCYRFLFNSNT
Recorded IC50 for compounds tested on Tyrosine-protein phosphatase non-receptor type 1 (Homo sapiens, UniProt P18031), drawn from a number of studies.

chemical_structure=CC(C)(O)CCOc1ccc2c(F)c(N3CC(=O)NS3(=O)=O)c(O)cc2c1 recorded_measurement="> 0.1 µM"
chemical_structure=CC1=CC[C@H]2C(C)(C)CCC[C@]2(C)[C@H]1CCOS(=O)(=O)O recorded_measurement="> 320 µM"

Note: attention shifts to another entry.
In: What does the record list as IC50 for `CCc1nc(-c2sc(Br)c(Br)c2OCC(=O)O)no1` ?
Out: > 2500 µM
